Biological target: T1, TIA1 RRM2-3 (Homo sapiens, UniProt P31483-2 93-274)
T1 sequence: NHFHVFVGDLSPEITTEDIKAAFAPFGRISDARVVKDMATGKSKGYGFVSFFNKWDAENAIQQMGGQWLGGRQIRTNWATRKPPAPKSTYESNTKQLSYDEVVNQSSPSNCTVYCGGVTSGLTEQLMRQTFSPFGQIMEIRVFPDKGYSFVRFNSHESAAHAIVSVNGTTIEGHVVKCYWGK
Assay: EMSA; 10 mM sodium phosphate pH 6.5, 50 mM NaCl, 1 mM DTT; room temperature, 20 min; 1.2% agarose; protein 0.1-10 uM; RNA annealed in 10 mM Tris pH 7.5, 100 mM KCl
Conditions: tags: His6-SUMO (cleaved; BamHI linker Ser or Gly-Ser may stay); label: 5' Cy3
measurement kind: pKd
Just the number, please; pKd means minus log10 of the concentration in mol/L.

# example entries with known answers
* UGUUCUCUAAACGAACUUCAA (structured_RNA) [SL3 U78C] | 5.87
* UGUUCUCUAAACGAACGUUAA (structured_RNA) [SL3 U76G] | 5.41
* UGUUCUCUAAACGAACUCUAA (structured_RNA) [SL3 U77C] | 5.89
* UGUUCUCUAAACGAACGGGAA (structured_RNA) [SL3-TL-G3] | 5.56

Proceed to the following item.
Task: So what does the record say about pKd for UGUUCUCUAAACGAACCCCAA (structured_RNA) [SL3-TL-C3] ?
Result: 5.65

This collection of values is drawn from paper PMC10287707.
